- assay.info: yeast display, Sf9 membrane polyspecificity reagent, FACS + sequencing; frameworks hold sequencing errors
readout.name: polyreactivity (PSR sort gate)

> print(dat)
                           residue.sequence                    readout.name              result
1  QVQLVESGGGLVQAGGSLRLSCAASGSTFATYAMGWYRPAPGKERELVAAITRGGRTNYADSVKGRFTISRDNAKNTVYLQMNSLKPEDTSVYYCAADYIYGYFWRFGYWGQGTQVTVSS  polyreactivity (PSR sort gate)  low polyreactivity
2  QVQLVESGGGCSGGRSLRLSCAASGLIFDDNAMGWYRQAPGKERELVAAITWSTSSTYYADSVKGRFTISRDNAKNNVYLQMNSLKREDTAVYYCNKRYKFRYYYWGQGTQVTVSS  polyreactivity (PSR sort gate)  low polyreactivity

----------
- assay.info: yeast display, Sf9 membrane polyspecificity reagent, FACS + sequencing; frameworks hold sequencing errors

residue.sequence	polyreactivity (PSR sort gate)
QVQLVESGGGLVQAGGSHRLSCAASGITLGRYAMGWYRQAPGKEREFVAAISSWSGGSTTYADSVKGRFTISRDNAKNTVYLQMNSLKPEDTAVYYWNARRYYGRYYLGHSDYDYWGQGTQVTVSS	high polyreactivity
QVQLVESGGGLVQAGGSLRLSCAASGRIFYRNAMGWYRQAPGKERELVAAISSSAGSTYYADSVKGRFTISRDNAKNTVYLQMNSLKPEDTAVYYCAAGSGTFVTRYRYGYWGQGTQVTVSS	high polyreactivity

----------
- assay.info: yeast display, Sf9 membrane polyspecificity reagent, FACS + sequencing; frameworks hold sequencing errors

residue.sequence	polyreactivity (PSR sort gate)
QVQLVESGGGLDQAGGSLGLSCAPSGRTFFPYAMGWSRQAPGKEREFVAAITKTDDSTYYADSVKGRFTISRDKAKNTVYLPMNSLKPEDTAVYYCIAGDTQIRFYYWGQGTQVTVSS	low polyreactivity
QVQLVESGGGLVQAGGSLRLSCAASGSIFDYYAMGWYRQAPGKERELVASINSSGTGTYYADSVKGRFTISRDNAKNTVYLQMNSLKPEDTAVYYCATRQAVGYSSGRGYGYWGQGTQVTVSS	low polyreactivity
QVQLVESGGGLVQAGGSLRLSCAASGRTCKPYAMGWYRQAPGKEREVVAVITSNGSSTYYADSVKGRFTISRDNAKNTVYLQMNSLKPEDTAVYYCATKLTYTLTSGAYAYDYWGQGTQVTVSS	low polyreactivity
QVQLVESGGGLVQAGGSLRLSCAASGSTFTINAKGWYRQATGKETELVAAITDSAGNTYYADSVKGRFTISRDNAKNTVYLQMNSLKPEDTAVYYCAAAWPSTGLLYVLGYSGYGYWGQGTQVTVSS	low polyreactivity
QVQLVESGGGLVQAGGSLRLSCAASGSIFPLNAMGWYRQSPGKERELVATISWRGGITYYADSVKGRFTISRDNAKNTVYLQMNSLKPEDTAVYYCATVGRWNSLWYRYRYDYWGQGTQVTVSS	low polyreactivity

----------
- assay.info: yeast display, Sf9 membrane polyspecificity reagent, FACS + sequencing; frameworks hold sequencing errors

residue.sequence	polyreactivity (PSR sort gate)
QVQLVESGGGLVQAGGSLSLSCAASGSTFAYYAMGGYRQAPGKERELVAGITWTGGSTYYADSVKGRFTISRDNAKNTVYLQMNSLKPEDTAVYYCAVTYPYGYEYDHWGQGTQVTVSS	low polyreactivity
QVQLVESVGGLVQAGGSLRLSCAASGIIFRANAMGWYRQAPGKERELVAAISGRGSSTTYADSVKGRFTISRDNAKNTVYLQMNSLKPEDTAVYYCAAGYGKWFATWRSQKYDYWGQGTQVTVSS	high polyreactivity
QVQLVESGGGLVQAGGSLRLSCAASGFIFGVYAMGWYRQAPGKERELVAAISGSGGTTYYADSVKGRFTISRDNAKNTVYLQMISLKPEDTAVYYCNAAYRVRYIVNYDYWGQGTQVTVSS	low polyreactivity
QVQLVESGGGLVQAGGSLRLSCAASGFIFYRYAMGWYRQAPGNERELVAAISSGGSTYYADSVKGRFTISRDNAKNTVYLQMNSLKPEDTAVYYCNAYHNYWRYRTDEMNYWGQGTQVTVSS	high polyreactivity
QVQLVESGGGLVQAGGSLRLSCAASGFIFSQYARGWYRQAPGKERELVAAISYSGGSTYYADSVKGRFTISRDNAKNTVYLQMNSLKPEDTAVYYCAVSGRSYYRSDYWGQGTQVTVSS	high polyreactivity
QVQLVESGGGLVQAGGSLRLSCAASGSIYGTNAMGWYRQAPGKERELVSAIDGGSTTYYADSVKGRFTISRDNAKNTVYLQMNSLKPEDTAVYYCAADGTRYLNYEGYAGYEYWGQGTQVTVSS	low polyreactivity
QVQLLESGGGLVQAGGSLRLSCAASGRTFRRYAMGWYRQAPGKERELVAAISYSGTTTYYADSVKGRFTISRDNAKNTVYLQMNSLKPEDTAVYYCNKATAYGLDYWGQGTQVTVSS	high polyreactivity
QVQLVESGGGLVQAGGSLRLSCAASGSTFVPYAMGWYRQAPGKERELVASISWRGGSTSYADSVKGRFTISRDNAKNTVYLQMNSLKPEDTAVYYCAARPRYRYKQDYYYWGQGTQVTVSS	high polyreactivity
QVQLVESGGGLVQAGGSLRLSCAASGRTFGINAMGWYRPAPGKERELVAAIRTGGSTYYADSVKGRFTISRDNAKNTVYLQMNSLKPEDTAVFYCAAVLYHNRKTEYTYGYWGQGTQVTVSS	high polyreactivity
QVQLVESGGGLVQAGGSLRLSCAASGSIFRTNAMGWYRQAPGKERELVAAITGRGGSTYYADSVKGRFTISRNNAKNTVYLQMNSLKPEDTAVYDCAADTWYGYRYKYDYWGQGTQVTVSS	high polyreactivity
QVQLVESGGGLVQAGGSLRLSCAASGIIFFWNAMGWYRQAPGKERELVAAISEDGGGTYYADSVKGRFTISRDNAKNTVYLQMNSLKPEDTAVYYCNTDTSPQIVTRRSFDDYWGQGTQVTVSS	low polyreactivity
QVQLVESGGGLVQAGGSLRVSCAASGFTFSHYAMGWYRQAPGKERELVAAISWGGGSTYYADSVKGRFTISRDNAQNTVYLQMNSLKPEDTAVYYCAARYVLFSNRFDYWGQGTQVTVSS	high polyreactivity
QDQLVESGGGLVQAGGSLRLSFAASGFTFDHYAMGWSRQAPGKEREYVARITGTGDSTYYADSVKGRFTISRDNAKNTVYLQMNSLKPEDTAVYYCAKDFTGHYPNGFDYWGQGTQVTVSS	low polyreactivity
QVQLVESGGGLVQAGGSLRLSCAASGSIFYIYAMGWYRQAPGKERELVAGIRNGGSTKYADSVKGRFTISRDNAKNTVYLQMNSLKPEDTAVYYCAARYYRPYTSSWAHNYRLDDWGQGSQVTVSS	high polyreactivity
QVQLVETGGGLVQAGGSLRLSCAASGRNYTYTMGWYRQAPGKERELVAAITYSGGSTYYADSVKGRFTISRDNAKNTVYLQMNSLKPEDTAVYYCAAVGRWPRYYYWGQGTQVTVSS	high polyreactivity
QVQLVESGGGLVQAGGSLRLSCAASGSTFSRYTMGWYRQAPGKERELVAAISKSGGSTYYADSVKGRFTISRDNAKNTVYLQMNSLKPEDTAVYYCAALVRAGTSLDYDYWGQGTQVTVSS	high polyreactivity
QVQLVESWGGLVQAGGSLRLSCAASGRIFKYNAMGWYRQAPGKERELVAAISGGGSTNYADSVKGRFTISRDNAKNTVYLQMNSLKPEDTAVYYCAASDPFEASQYKYDYWGQGTQVTVSS	low polyreactivity
QVQLVESGGGLVQAGRSLRLRCPASGLTINSYAMGWYRQAPGKERELVAAIDWSGGRTYYADSVKGRFTISRDNAKNTVYLQMNSLKPEDTAVYYCAAYSRNRALRFNYWGQGTQVTVSS	high polyreactivity
QVQLVESGGGIVQSGGSLRLSFAASGSIVDWNAMGWYRQAPGKARELVASISSGGSTDYADSVKGRFTISRDNAKNTVYLQMNSLKPEDTAVYYCNADAYAYYPPRWYYGYDYWGQGTQVTVSS	low polyreactivity
QVQHVESGGGLVQAGGSLRISSAASGYIFDKYAMGRYRQAPGKERELVAAITYSGGSTYYADSVKGRFTISRDNAKNTVYLQMNSLIAEDTAVNYCAPEVRRSTLEFGYWRQGTQVTVSS	high polyreactivity
QVQLVESGGGLVQAGGSLRLSCAASGITFFHYAMGWYRQAPGKERELVATISWRAGSTYADSVKGRFTISRDNAKNTVYLQMNSLKPEDTAVYYCNAVWTYHSGSGGYLFDYWGQGTQVTVSS	low polyreactivity

----------
- assay.info: yeast display, Sf9 membrane polyspecificity reagent, FACS + sequencing; frameworks hold sequencing errors
readout.name: polyreactivity (PSR sort gate)

residue.sequence	result
QVQLVESGRGLVQAGGSLRLSCAASGSIFSSYAMGWYRQAPGKERELVAAITWSGGRTYYADSVKGRFTISRDNAKNTVYLQMNSLKPEDTAVYYCNAVYLAYGGDYWGQGTQVTVSS	high polyreactivity
QVQLVESGGGLVQAGGSLRLSCAASGSIFWSNAMGWYRQAPGKEREFVATITNGTTTNYADSVKGRFTISRDNAKNTVYLQMNSLKPEDTAVYYCAVTGVYVKYDYWGQGTQVTVSS	low polyreactivity
QVQLVESGGGLVQAGGSLRLSCAASGSTFRGYVMGWYRQAPGKERELVAVISYNGGSTYYADSVKGRFTISRDNAKNTVYLQMNSLKPEDTAVYYCAATYFFLYTSWDEYWGQGTQVTVSS	low polyreactivity
QVQLVESGGGLVQAGGSLRLSCAASGSTFGEYAMGWYRQAPGKERELVASITFSAGSTDYADSVKGRFTISRDNAKNTVFLQMNSLKPEDTSVYYCAADGWWPWEYEYWGQGTQVTVSS	low polyreactivity
QVQLVESGGGLVQAGGSLRLSCAASGSTFSLYAMGWYRQAPGKERELVAAISQSGSRTYYADSVKGRFTISRDNAKNTVYLQMNSLKPEDTAVYYCAAYSPQTYLRWTYGYWGQGTQVTVSS	high polyreactivity
